assayed_system: ER in T47D cells (Homo sapiens (Human))
Sequence (P03372 whole entry): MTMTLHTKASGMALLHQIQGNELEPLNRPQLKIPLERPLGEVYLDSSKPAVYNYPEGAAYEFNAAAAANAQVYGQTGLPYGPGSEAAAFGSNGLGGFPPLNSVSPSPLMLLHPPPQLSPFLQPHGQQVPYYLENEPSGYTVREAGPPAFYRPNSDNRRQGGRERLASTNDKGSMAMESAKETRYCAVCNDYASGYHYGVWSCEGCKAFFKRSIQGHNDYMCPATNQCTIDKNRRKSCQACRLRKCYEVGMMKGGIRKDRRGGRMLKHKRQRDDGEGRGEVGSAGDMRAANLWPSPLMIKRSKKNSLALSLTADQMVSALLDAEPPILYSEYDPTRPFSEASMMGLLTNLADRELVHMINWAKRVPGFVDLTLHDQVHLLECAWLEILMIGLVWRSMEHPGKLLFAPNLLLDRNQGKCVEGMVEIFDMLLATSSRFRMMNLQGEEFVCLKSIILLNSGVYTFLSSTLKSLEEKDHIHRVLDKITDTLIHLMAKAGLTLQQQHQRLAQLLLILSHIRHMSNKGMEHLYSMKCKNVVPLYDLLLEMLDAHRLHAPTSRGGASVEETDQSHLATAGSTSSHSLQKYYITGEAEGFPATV
test_method_notes: In-cell western (ICW) ER degradation assay in T47D cells (Compounds A1-A70)
Format: cell-based
measurement_setup: ER degradation, T47D cells, 16 hrs treatment, 0.02 to 300 nM
Where a name gives a salt, the structure may show the parent alone.
readout: DC50

molecule	assayed_system	result_value
COc1cc(N2CCC(CN3CCN(c4ccc(C(=O)N[C@@H]5CCC(=O)NC5=O)nc4)CC3)CC2)ccc1[C@@H]1c2[nH]c3ccccc3c2C[C@@H](C)N1CC(F)F [Compound A57, formate]	ER in T47D cells (Homo sapiens (Human))	< 1 nM
C[C@H]1Cc2c([nH]c3ccccc23)[C@H](c2cnc(N3CCC4(CC3)C[C@@H](CN3CCN5c6cc7c(cc6OC[C@@H]5C3)C(=O)N([C@@H]3CCC(=O)NC3=O)C7)CO4)nc2)N1CC(F)F [Compound A68]	ER in T47D cells (Homo sapiens (Human))	< 1 nM
C[C@H]1Cc2c([nH]c3ccccc23)[C@H](c2ccc(N3CCC(CN4CCN5c6cc7c(cc6OC[C@H]5C4)C(=O)N([C@@H]4CCC(=O)NC4=O)C7)CC3)cn2)N1CC(F)(F)F [Compound A64]	ER in T47D cells (Homo sapiens (Human))	> 100 nM
C[C@@H]1Cc2c([nH]c3ccccc23)[C@@H](c2cnc(N3CCC4(CC3)C[C@@H](CN3CCN5c6ccc(C(=O)N[C@H]7CCC(=O)NC7=O)nc6OC[C@H]5C3)CO4)nc2)N1CC(F)F [Compound A63]	ER in T47D cells (Homo sapiens (Human))	1 to 10 nM
COc1cc(N2CCC(CN3CCN4c5ccc6c(c5OC[C@@H]4C3)CN([C@@H]3CCC(=O)NC3=O)C6=O)CC2)ccc1[C@@H]1c2[nH]c3ccccc3c2C[C@@H](C)N1CC(F)F [Compound A42]	ER in T47D cells (Homo sapiens (Human))	< 1 nM

* * *

test_method_notes: Cell growth assay (WST-8) (Compounds B1-B278)
Type: cell-based
measurement_setup: T47D cell line; WST-8, 4 days; read-out: Cell Growth Inhibition in T47D cell line IC50
pIC50: −log10 of the molar value.
Some compounds, each annotated with its measured pIC50.
readout: pIC50

compound	result_value
C[C@@H]1Cc2c([nH]c3ccccc23)[C@@H](c2c(F)cc(N3CCC(CN4CCN5c6ccc7c(c6OC[C@H]5C4)CN(C4CCC(=O)NC4=O)C7=O)CC3)cc2F)N1CC(C)(C)F (mixture of isomers)	> 9.00
C[C@@H]1Cc2c([nH]c3ccccc23)[C@@H](c2cnc(N3CCC(CN4CCN5c6ccc7c(c6OC[C@H]5C4)CN(C4CCC(=O)NC4=O)C7=O)CC3)nc2)N1CC(F)F (mixture of isomers)	> 9.00
C[C@@H]1Cc2c([nH]c3ccccc23)[C@@H](c2ccc(N3CCC4(CC3)CC(CN3CCN5c6cc7c(cc6OC[C@@H]5C3)C(=O)N(C3CCC(=O)NC3=O)C7)CO4)cn2)N1CC(F)(F)F (stereo partly shown)	8.00 to 9.00
COc1cc(N2CCC3(CC2)CC(CN2CCN4c5ccc6c(c5OC[C@H]4C2)CN(C2CCC(=O)NC2=O)C6=O)CO3)ccc1[C@@H]1c2[nH]c3ccccc3c2C[C@@H](C)N1CC(F)F (stereo partly shown)	> 9.00
